Test system: SARS-CoV-2
Assay: Antiviral activity against SARS-CoV-2 isolate USA-WA1/2020 infected in Calu-3 cells preincubated for 24 hrs followed by viral infection and measured after 48 hrs by Hoechst 33342 staining based microscopic method
Format: functional, organism-based
Details: Severe acute respiratory syndrome coronavirus 2, USA-WA1/2020, Calu-3

COMPOUND STRUCTURE STRING	EC50 (nM)
C[C@H]1CC[C@H]2C(C)(C)CCC[C@]23Oc2ccc(O)cc2C[C@]13C	4000
CCC(CC)COC(=O)[C@H](C)N[P@](=O)(OC[C@H]1O[C@@](C#N)(c2ccc3c(N)ncnn23)[C@H](O)[C@@H]1O)Oc1ccccc1	300
CC1=C2Cc3cc(ccc3O)C(=O)O[C@H](C(C)(C)Br)CC[C@](C)(O)[C@H](Br)CC[C@]2(C)[C@@H](Br)CC1	6900
CC(=O)C[C@]1(O)c2ccccc2-[n+]2ccc3c([nH]c4ccccc43)c21.O=C([O-])C(F)(F)F	1100
